Record form. Attribute: Kp uu. Fill in for each entry.
assay: Plasma and Brain Levels after oral dosing; format: in vivo; details: brain/plasma; 10 mg/kg oral, male mouse, fed, 1.5 hr; read-out: Kpuu (Cu,brain vs. Cu,plasma)
Respond with the number and no other words.

Look up and state reported Kp uu for "C[C@H]1c2cccc(-c3cnn(C)c3)c2C[C@H](CO)N1C(=O)Cc1c(Cl)cccc1Cl"
0.44

Consider the molecule "C[C@H]1c2cccc(-c3cn[nH]c3)c2C[C@H](CO)N1C(=O)Cc1c(Cl)cccc1Cl" . State its measured Kp uu.
0.1

###

molecular target: human D1 receptor (Homo sapiens (Human)); experiment: Human D1 Receptor PAM Assay (cAMP HTRF, potentiator mode with EC20 dopamine); conditions: HEK293 cells expressing human D1 receptor, 12 nM dopamine (EC20), cAMP; read-out: Abs EC50
Sequence (P21728 whole entry): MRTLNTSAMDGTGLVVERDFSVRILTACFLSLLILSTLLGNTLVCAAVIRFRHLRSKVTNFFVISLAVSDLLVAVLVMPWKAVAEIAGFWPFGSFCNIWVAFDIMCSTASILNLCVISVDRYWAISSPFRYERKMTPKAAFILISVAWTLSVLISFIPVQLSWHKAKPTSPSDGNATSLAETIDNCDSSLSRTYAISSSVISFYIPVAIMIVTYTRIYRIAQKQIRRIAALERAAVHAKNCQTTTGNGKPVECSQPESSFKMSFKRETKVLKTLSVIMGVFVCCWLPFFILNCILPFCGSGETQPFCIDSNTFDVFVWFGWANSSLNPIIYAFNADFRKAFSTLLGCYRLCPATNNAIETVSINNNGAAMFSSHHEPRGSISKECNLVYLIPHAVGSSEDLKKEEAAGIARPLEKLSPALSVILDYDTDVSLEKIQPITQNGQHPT
I'd be grateful if you could share measured EC50 for these entries.
Report only the number, with the unit nM understood.

Tell me measured EC50 for "C[C@H]1c2cccc(-c3cnn(CCO)c3)c2C[C@H](CO)N1C(=O)Cc1ccccc1Cl" please.
18.3

Provide measured EC50 value, entry: "C[C@H]1c2cccc(-c3cnn(C)c3)c2C[C@H](CO)N1C(=O)Cc1ccccc1Cl"
81.2

Tell me its EC50 given "CCn1cc(-c2cccc3c2C[C@H](CO)N(C(=O)Cc2c(Cl)cccc2Cl)[C@H]3C)cn1" as the entry.
172

Input "C[C@H]1c2cccc(-c3cn[nH]c3)c2C[C@H](CO)N1C(=O)Cc1c(Cl)cccc1Cl" , output reported EC50.
13.4

Recall and state the measured EC50 for "C[C@H]1c2cccc(-c3cn[nH]c3)c2C[C@H](CO)N1C(=O)Cc1cc(F)ccc1F" .
836

Specify measured EC50 for "C[C@H]1c2cccc(-c3cn[nH]c3)c2C[C@H](CO)N1C(=O)Cc1ccc(F)cc1Cl" .
540

###

assay: Plasma and Brain Levels after oral dosing; assay type: in vivo; settings: male, mouse, brain, oral, 60 mg/kg, 60 mg/kg oral, fed, 1.5 hr, read-out: Cu, brain
readout_label: concentration at 1 h (nM)
Write the number in nM without appending the unit.

Identify measured concentration at 1 h corresponding to "C[C@H]1c2cccc(-c3cn[nH]c3)c2C[C@H](CO)N1C(=O)Cc1c(Cl)cccc1Cl"
50

###

assay: Fraction unbound in plasma and brain, determined in vitro (equilibrium dialysis); type: in vitro ADME; details: fraction unbound in brain, read-out: fu, brain
readout_label: fraction unbound
# output: bare number, no unit

# return recorded fraction unbound for input "C[C@H]1c2cccc(-c3cnn(C)c3)c2C[C@H](CO)N1C(=O)Cc1c(Cl)cccc1Cl"
0.025

Provide one value: measured fraction unbound of "C[C@H]1c2cccc(-c3cn[nH]c3)c2C[C@H](CO)N1C(=O)Cc1c(Cl)cccc1Cl"
0.01

###

experiment: Plasma and Brain Levels after oral dosing; format: in vivo; conditions: male, mouse, brain, oral, 20 mg/kg, 20 mg/kg oral, fed, 1.5 hr, read-out: Cu, brain
readout_label: concentration at 1 h (nM)
Report as a plain number; the unit nM is understood.

Specify concentration at 1 h for C[C@H]1c2cccc(-c3cn[nH]c3)c2C[C@H](CO)N1C(=O)Cc1c(Cl)cccc1Cl [Example 8] and stop.
7.21

###

So I've got a bunch of compounds here, and I need their Kp uu values.
assay: Plasma and Brain Levels after oral dosing; assay type: in vivo; details: brain/plasma; 3 mg/kg oral, male mouse, fed, 1.5 hr; read-out: Kpuu (Cu,brain vs. Cu,plasma)

Please give measured Kp uu of the following entry: "C[C@H]1c2cccc(-c3cnn(C)c3)c2C[C@H](CO)N1C(=O)Cc1c(Cl)cccc1Cl"
1.06

Dear colleague, please send me the reported Kp uu for "C[C@H]1c2cccc(-c3cn[nH]c3)c2C[C@H](CO)N1C(=O)Cc1c(Cl)cccc1Cl" when you can.
0.24
